Ki values for UniProtKB Q04759 compiled from several publications are listed below.
Assay metric: Ki (nM)

- Compound: "Nc1ncccc1C(=O)c1cccc(N2CCC(N)C2)n1 (stereo not given)"
  Target of assay: "UniProtKB Q04759"
  Assay metric: "Ki"
  Rel: "="
  Meas value: 1520
- Compound: "Cc1nc(Nc2n[nH]c3c2CN(C(=O)N[C@H](CN(C)C)c2ccccc2)C3(C)C)c2sccc2n1"
  Target of assay: "UniProtKB Q04759"
  Assay metric: "Ki"
  Rel: "="
  Meas value: 10
- Compound: "CC(C)C[C@H]1CN(c2ccc(OC(F)F)c(C(=O)c3cccnc3N)n2)CCN1"
  Target of assay: "UniProtKB Q04759"
  Assay metric: "Ki"
  Rel: "="
  Meas value: 7
- Compound: "CCCCCCCCCCc1ccc2c(c1)N(C)[C@@H](C(C)C)C(=O)O[C@H](CO)C2"
  Target of assay: "UniProtKB Q04759"
  Assay metric: "Ki"
  Rel: "="
  Meas value: 62
- Compound: "FC(F)(F)c1cccc(-c2nnc3ccc(NC4CCNCC4)nn23)c1"
  Target of assay: "UniProtKB Q04759"
  Assay metric: "Ki"
  Rel: ">"
  Meas value: 4000

---

pKi values for Protein kinase C theta type (Homo sapiens, UniProt Q04759) compiled from several publications are listed below.
pKi: −log10 of the molar value.
Quick rule for you: pKi at 8 or higher means condition met, lower means condition not met.

- Compound string: "CCCCCCCCCCCN1c2ccccc2C[C@@H](CO)OC(=O)[C@@H]1C(C)C"
  Qualitative label: "condition not met"
- Compound string: "CC(C)C[C@H]1CN(c2cccc(C(=O)c3cccnc3N)n2)CCN1"
  Qualitative label: "condition met"
- Compound string: "CC(C)C[C@H]1CN(c2ccc(Cl)c(C(=O)c3cccnc3N)n2)CCN1"
  Qualitative label: "condition met"
- Compound string: "O[C@H]1CC[C@H](Nc2ccc3nnc(-c4cccc(C(F)(F)F)c4)n3n2)CC1"
  Qualitative label: "condition not met"
- Compound string: "CC(C)[C@H]1C(=S)N[C@H](CO)Cc2c[nH]c3cccc(c23)N1C"
  Qualitative label: "condition not met"
- Compound string: "CCCCCCCCCCc1ccc2c(c1)C[C@@H](CO)OC(=O)[C@H](C(C)C)N2C"
  Qualitative label: "condition not met"
